Below is a list of entries, each paired with its recorded EC50 value.
# targetEntity: mutant form of the human GPR119 receptor (Homo sapiens, UniProt Q8TDV5, S329A/T327A)
# Sequence (Q8TDV5 with tags, fused parts or gaps T327A/S329A): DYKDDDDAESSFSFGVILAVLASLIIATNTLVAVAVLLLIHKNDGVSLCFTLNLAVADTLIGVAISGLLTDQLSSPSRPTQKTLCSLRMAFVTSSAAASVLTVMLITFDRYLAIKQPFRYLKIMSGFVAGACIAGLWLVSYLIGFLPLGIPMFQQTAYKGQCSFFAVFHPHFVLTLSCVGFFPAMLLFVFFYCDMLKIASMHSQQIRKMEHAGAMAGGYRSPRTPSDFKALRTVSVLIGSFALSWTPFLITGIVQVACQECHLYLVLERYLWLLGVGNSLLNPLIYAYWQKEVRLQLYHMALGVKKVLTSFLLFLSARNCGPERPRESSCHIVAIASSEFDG
# protocolSummary: LANCE cAMP-384 assay in HEK293 cells stably expressing a mutant form of the human GPR119 receptor
# experimentalConditions: cAMP accumulation, GPR119 stable HEK293 cells, LANCE kit, 20 min at 37° C.
valueKind: EC50 (nM)

> print(dat)
                                   compound  resultunits  recordedvalue
1  CCc1cnc(N2CCC(N(C(=O)c3cnc(-n4cncn4)nc3)C3CC3)CC2)nc1           nM             98
2  CCc1cnc(N2CC[C@@H](N(C(=O)c3cn(-c4ccc(C#N)cn4)cn3)C3CC3)[C@@H](F)C2)nc1 (single isomer, unassigned)           nM            188
3  CCc1cnc(N2CC[C@@H](N(C(=O)c3cnc(-n4ccnc4C)cn3)C3CC3)[C@@H](F)C2)nc1 (single isomer, unassigned)           nM             44

====

# targetEntity: mutant form of the human GPR119 receptor (Homo sapiens, UniProt Q8TDV5, S329A/T327A)
# protocolSummary: LANCE cAMP-384 assay in HEK293 cells stably expressing a mutant form of the human GPR119 receptor
# experimentalConditions: cAMP accumulation, GPR119 stable HEK293 cells, LANCE kit, 20 min at 37° C.
pEC50: −log10 of the molar value.
valueKind: pEC50

> print(dat)
                                   compound  recordedvalue
1  CCc1cnc(N2CC[C@@H](N(C(=O)c3cn(-c4ccc(C#N)cn4)c(C)n3)C3CC3)[C@@H](F)C2)nc1 (single isomer, unassigned)           6.44
2  O=C(c1cnc(-n2cncn2)nc1)N(C1CC1)[C@@H]1CCN(c2ccc(C(F)(F)F)cn2)C[C@@H]1F (single isomer, unassigned)           6.95
3  CCc1cnc(N2CCC(N(C(=O)c3cnc(-n4cncn4)cn3)C3CC3)CC2)nc1           7.54

====

This listing pairs molecules with measured pEC50.
# targetEntity: human GPR119 (Homo sapiens)
# Construct: expression vector for human GPR119 cDNA (Acc. No. NP_848566)
# Sequence (Q8TDV5 whole entry): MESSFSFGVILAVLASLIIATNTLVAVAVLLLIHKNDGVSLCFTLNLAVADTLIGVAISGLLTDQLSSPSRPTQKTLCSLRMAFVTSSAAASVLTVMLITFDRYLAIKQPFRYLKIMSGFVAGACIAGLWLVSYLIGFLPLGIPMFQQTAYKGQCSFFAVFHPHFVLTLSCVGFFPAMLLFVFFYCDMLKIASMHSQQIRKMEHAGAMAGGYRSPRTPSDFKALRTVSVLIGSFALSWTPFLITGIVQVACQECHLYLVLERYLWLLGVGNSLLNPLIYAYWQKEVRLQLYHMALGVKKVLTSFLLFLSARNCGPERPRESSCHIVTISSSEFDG
# protocolSummary: AlphaScreen cAMP assay in MIN6 cells stably transfected with human GPR119
# experimentalConditions: Min-6/hGPR119 cells, 45 minutes incubation at room temperature
pEC50: −log10 of the molar value.
valueKind: pEC50

> print(dat)
                      structuresmilesstring  valuekind  recordedvalue
1  CCc1cnc(N2CCC(N(C(=O)c3cnc(-n4ccnc4CC)nc3)C3CC3)CC2)nc1      pEC50           7.22
2  CCc1cnc(N2CCC(N(C(=O)c3cnc(-c4cnco4)cn3)C3CC3)CC2)nc1      pEC50           7.20
3  CCCc1noc(N2CCC(N(C(=O)c3cnc(-c4cnco4)cn3)C3CC3)CC2)n1      pEC50           7.17
4  CCc1cnc(N2CCC(N(C(=O)c3cnc(-c4ccc(S(C)(=O)=O)cc4)nc3)C3CC3)CC2)nc1      pEC50           7.62
5  CCCc1noc(N2CCC(N(C(=O)c3cnc(-n4ccnc4C)nc3)C3CC3)CC2)n1      pEC50           6.86

Reference for the values: patent US8921398B2
